Tested on: 935938-334-R-J1-PDC spheroids with HUVEC/MSC, viability;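 further: compound exposure lasted seven days before viability was read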
Assay: Anticancer human tumor 935938-334-R-J1-PDC patient-derived small intestine adenocarcinoma cell line growth inhibition [PI3K]
Conditions: curve of first compound; second compound 1 µM
Record form. Attribute: IC50. Fill in for each entry.
Please reply with the bare figure in µM and do not write the unit itself.

[Q] Output measured IC50 for this item: Cn1nccc1Nc1nccc(-c2ccn(C(CO)c3ccc(Cl)c(F)c3)c(=O)c2)n1 (stereo not given) + CC(Nc1ncnc2nc[nH]c12)c1cc2cccc(Cl)c2c(=O)n1-c1ccccc1
[A] 1.28

[Q] Output measured IC50 for this item: C=CC(=O)N1CCN(c2nc(=O)n(-c3c(C)ccnc3C(C)C)c3nc(-c4c(O)cccc4F)c(F)cc23)C(C)C1 (stereo not given) + CC(Nc1ccc2c(c1)OCCn1cc(N3C(=O)OCC3C(F)F)nc1-2)C(N)=O
[A] 8.04

[Q] Output measured IC50 for this item: CC1(C)CCC(CN2CCN(c3ccc(C(=O)NS(=O)(=O)c4ccc(NCC5CCOCC5)c([N+](=O)[O-])c4)c(Oc4cnc5[nH]ccc5c4)c3)CC2)=C(c2ccc(Cl)cc2)C1 + CC(Nc1ccc2c(c1)OCCn1cc(N3C(=O)OCC3C(F)F)nc1-2)C(N)=O
[A] 3.21

[Q] Output measured IC50 for this item: CNC(=O)c1ccc(N2C(=S)N(c3ccc(C#N)c(C(F)(F)F)c3)C(=O)C2(C)C)cc1F + CC(Nc1ccc2c(c1)OCCn1cc(N3C(=O)OCC3C(F)F)nc1-2)C(N)=O
[A] 3.16

[Q] Output measured IC50 for this item: Cn1nccc1Nc1nccc(-c2ccn(C(CO)c3ccc(Cl)c(F)c3)c(=O)c2)n1 (stereo not given) + CC(Nc1ccc2c(c1)OCCn1cc(N3C(=O)OCC3C(F)F)nc1-2)C(N)=O
[A] 0.147
